Test Target: HA of ca A/Vietnam/1203/04 (H5N1) (influenza A virus)
Procedure Text: cell-based or functional assay

{"columns": ["Binder", "Neutralization IC50, H5-VM04, µg/mL"],
 "data": [
  ["Antibody 5 (antibody, V domains shown) VH: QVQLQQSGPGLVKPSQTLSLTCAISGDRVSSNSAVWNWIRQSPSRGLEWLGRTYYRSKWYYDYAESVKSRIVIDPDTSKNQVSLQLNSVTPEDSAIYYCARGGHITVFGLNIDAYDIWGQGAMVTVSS VL: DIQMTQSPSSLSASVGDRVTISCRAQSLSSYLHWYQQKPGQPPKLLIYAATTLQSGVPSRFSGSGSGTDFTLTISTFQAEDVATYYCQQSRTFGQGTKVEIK", 2.6]
]}
